Target: IL-17A (Homo sapiens)
Sequence (Q16552 24-155): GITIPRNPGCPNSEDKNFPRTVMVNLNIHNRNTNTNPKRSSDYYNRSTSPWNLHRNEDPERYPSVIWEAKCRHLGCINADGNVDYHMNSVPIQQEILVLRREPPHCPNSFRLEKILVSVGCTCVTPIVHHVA
Assay: Inhibition of IL-17A induced IL-6 release from dermal fibroblast cell line (HDF cell line assay)
Settings: human dermal fibroblasts stimulated with IL-17A (50 pM) + TNF-α (25 pM); IL-6 measured by HTRF; pIC50 = -log10[IC50], IC50 molar
Could you please report measured pIC50 for the items listed next?
One number for each entry, as −log10 of the molar value.

// worked examples, pIC50 included
| Molecule | Assay readout | Numeric result |
| --- | --- | --- |
| Cc1nonc1C(=O)N[C@H](c1cn2ncc([C@@H]3C[C@](O)(C(F)F)CCN3C(=O)C34CC(F)(C3)C4)nc2n1)C1CCC(F)(F)CC1 (single isomer, unassigned) | pIC50 | 7.40 |
| Cc1nonc1C(=O)N[C@H](c1cn2ncc([C@@H]3C[C@@H](O)CCN3C(=O)[C@@H]3CCC(F)(F)CO3)nc2n1)C1CCC(F)(F)CC1 (single isomer, unassigned) | pIC50 | 6.90 |

Can you give me pIC50 for all of these, one by one?
1. Cc1nonc1C(=O)N[C@H](c1cn2ncc([C@H]3C[C@@](C)(O)CCN3C(=O)C34CC(F)(C3)C4)nc2n1)C1CCC(F)(F)CC1 (single isomer, unassigned)
2. Cc1nonc1C(=O)N[C@H](c1cn2ncc(C3(C(=O)N4CC(C(F)(F)F)C4)CCN(C4COC4)CC3)nc2n1)C1CCC(F)(F)CC1
3. Cc1nonc1C(=O)N[C@H](c1cn2ncc([C@@H]3C[C@](C)(O)CCN3C(=O)[C@@H]3CCC(F)(F)CO3)nc2n1)C1CCC(F)(F)CC1 (single isomer, unassigned)
4. Cc1nonc1C(=O)N[C@H](c1cn2ncc([C@H]3C[C@@](C)(O)CCN3C(=O)[C@@H]3CCC(F)(F)CO3)nc2n1)C1CCC(F)(F)CC1 (single isomer, unassigned)
5. Cc1nonc1C(=O)N[C@H](c1cn2ncc([C@H]3COCCN3C(=O)[C@@H]3CCC(F)(F)CO3)nc2n1)C(C1CC1)C1CC1 (single isomer, unassigned)
6. CC(C)n1ncnc1C(=O)N[C@H](c1cn2ncc([C@H]3C[C@@](C)(O)CCN3C(=O)[C@@H]3CCC(F)(F)CO3)nc2n1)C1CCC(F)(F)CC1 (single isomer, unassigned)

Given back:
1. 6.10
2. 7.20
3. 8.40
4. 6.90
5. 7.00
6. 6.30

Can you give me pIC50 for all of these, one by one?
1. Cc1nonc1C(=O)N[C@H](c1cn2ncc([C@H]3C[C@](O)(C(F)F)CCN3C(=O)[C@@H]3CCC(F)(F)CO3)nc2n1)C1CCC(F)(F)CC1 (single isomer, unassigned)
2. Cc1nonc1C(=O)N[C@H](c1cn2ncc([C@@H]3C[C@@](C)(O)CCN3C(=O)C34CC(F)(C3)C4)nc2n1)C1CCC(F)(F)CC1 (single isomer, unassigned)

Given back:
6.80
7.10
